biological target: CDK2/Cyclin E (Homo sapiens); construct: The open reading frames of CDK2 and Cyclin E were isolated; substrate in E. coli BL21 (DE3) pLysS; assay: in vitro kinase assay (Scintillation Proximity Assay), CDK2/Cyclin E, GST-Rb substrate; conditions: in-vitro SPA kinase assay, 0.2 μM ATP, room temperature, 60 minutes; read-out: CDK2 inhibitory activity (CDK2 enzyme)
property_name: pIC50
Numbers only, as −log10 of the molar value.

Task: Query for CDK2/Cyclin E (Homo sapiens): what pIC50 does the record show for CN1CCN(C(=O)c2ccc(Nc3nccc(-c4cnc5ccccn45)n3)cc2)CC1 [Example 2] ?
Result: 7.05
